Known pKi of a selection of compounds
EXPERIMENTAL_PROTOCOL: Displacement of [125I]2-iodomelatonin from melatonin receptor in chicken brain membranes after 60 mins by gamma counting
Assay type: cell membranes, Gallus gallus, Membrane
Scale: negative log10 of molar concentration, which is what pKi denotes.

// below: answered compounds
compound=COc1ccc(OC)c(/C=C/NC(C)=O)c1 test_value=6.55
compound=CNC(=O)N/C=C/c1cccc2ccccc12 test_value=6.86
compound=COc1cccc(/C=C/NC(C)=O)c1 test_value=6.10
compound="COc1ccc(OC)c([C@@H]2C[C@H]2NC(C)=O)c1 (racemic)" test_value=6.89
compound="CC(=O)N[C@@H]1C[C@H]1c1cccc2ccccc12 (racemic)" test_value=6.89
compound=CNC(=O)N/C=C/c1c(OC)ccc2ccc(OC)cc12 test_value=10.10
compound="COc1ccc2ccc(OC)c([C@@H]3C[C@H]3NC(C)=O)c2c1 (racemic)" test_value=9.34
compound=CNC(=O)N/C=C/c1c(OC)ccc2ccccc12 test_value=7.44

Query: Which pKi is listed for COc1cccc([C@@H]2C[C@H]2NC(C)=O)c1 (racemic) ?
Response: 7.03

Query: Which pKi is listed for COc1ccc2ccccc2c1[C@@H]1C[C@H]1NC(C)=O (racemic) ?
Response: 7.82

Query: Which pKi is listed for COc1ccc2cccc([C@@H]3C[C@H]3NC(C)=O)c2c1 (racemic) ?
Response: 8.80

Query: Which pKi is listed for COc1ccc2cccc(CCNC(C)=O)c2c1 [AGOMELATINE] ?
Response: 9.17

Query: Which pKi is listed for "CNC(=O)N/C=C/c1cccc2ccc(OC)cc12" ?
Response: 9.36

----------
Known log10 Ki of a selection of compounds
ASSAY_TARGET: Melatonin receptor type 1B (Homo sapiens)
Sequence (P49286 whole entry): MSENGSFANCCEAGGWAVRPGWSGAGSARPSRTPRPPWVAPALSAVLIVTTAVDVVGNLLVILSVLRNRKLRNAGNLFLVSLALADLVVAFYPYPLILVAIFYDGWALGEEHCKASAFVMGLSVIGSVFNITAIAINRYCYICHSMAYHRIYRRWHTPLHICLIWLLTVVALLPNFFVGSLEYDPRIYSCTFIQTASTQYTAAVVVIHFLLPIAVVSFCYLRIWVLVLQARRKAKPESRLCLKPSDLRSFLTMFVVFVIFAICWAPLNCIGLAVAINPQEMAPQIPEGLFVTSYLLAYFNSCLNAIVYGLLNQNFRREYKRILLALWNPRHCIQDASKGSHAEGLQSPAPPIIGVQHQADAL
EXPERIMENTAL_PROTOCOL: Displacement of [125I]2-iodomelatonin from human recombinant MT2 receptor expressed in HEK293 cells after 2 hrs by gamma counting
Values are log10 of Ki in nM.

// below: answered compounds
compound="COc1ccc(OC)c([C@@H]2C[C@H]2NC(C)=O)c1 (racemic)" recorded_metric="log10 Ki" test_value=1.93
compound=CNC(=O)N/C=C/c1c(OC)ccc2ccccc12 recorded_metric="log10 Ki" test_value=0.81

Lab note: next compound to report on.
Query: Which log10 Ki is listed for "CNC(=O)N/C=C/c1cccc2ccccc12" ?
Response: 1.18

----------
EXPERIMENTAL_PROTOCOL: Displacement of [125I]2-iodomelatonin from melatonin receptor in chicken brain membranes after 60 mins by gamma counting
Assay type: cell membranes, Gallus gallus, Membrane
Known pKi of a selection of molecules
Scale: negative log10 of molar concentration, which is what pKi denotes.

// below: answered molecules
smiles_structure=COc1ccc2ccccc2c1/C=C/NC(C)=O recorded_metric=pKi test_value=8.34
smiles_structure=COc1ccc2[nH]cc(CCNC(C)=O)c2c1 recorded_metric=pKi test_value=9.27
smiles_structure=COc1ccc2ccc(OC)c(/C=C/NC(C)=O)c2c1 recorded_metric=pKi test_value=10.92

Lab note: next molecule to report on.
Query: Which pKi is listed for "COc1ccc2cccc(/C=C/NC(C)=O)c2c1" ?
Response: 9.80
